Reported pIC50 values for the following compounds.
subject.of.test: non-endogenous version of the MCH receptor (MCH-IC3-SST2) (Homo sapiens, UniProt Q99705, A240I/A242V/I247R/L249K/M235V/P241R/Q244S/R234K/R245S/R248K/R250S/R253K/S243G/S246K/T236K/T251E/V239G)
Construct: creating a MCH-IC3-SST2 mutation (see); cultured with 0.5 mg/ml G418, so I infer a stably transfected line
Sequence (Q99705 1-353 with the stated changes): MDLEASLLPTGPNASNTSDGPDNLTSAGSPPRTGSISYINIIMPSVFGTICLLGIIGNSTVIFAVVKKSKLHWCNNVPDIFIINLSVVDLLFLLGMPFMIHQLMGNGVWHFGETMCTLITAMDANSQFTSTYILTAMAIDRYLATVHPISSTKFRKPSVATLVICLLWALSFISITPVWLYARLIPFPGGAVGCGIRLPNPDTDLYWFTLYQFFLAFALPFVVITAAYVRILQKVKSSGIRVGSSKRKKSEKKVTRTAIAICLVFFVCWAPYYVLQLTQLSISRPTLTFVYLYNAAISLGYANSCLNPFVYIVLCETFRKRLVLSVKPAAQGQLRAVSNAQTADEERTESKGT
assay.explanation: FLIPR/FDSS6000 functional assay: intracellular Ca2+ changes evoked by MCH
setup.conditions: antagonist activity; 50 nM of MCH; transient changes in [Ca2+]i monitored by FLIPR or FDSS
Where a name gives a salt, the structure may show the parent alone.
Units for pIC50: none; it is -log10 of a concentration expressed in mol/L.

>>> df
                                   compound  measure  test_value
0  CN(C)c1nc(N[C@H]2CC[C@@H](CNCc3ccccc3OC(F)(F)F)CC2)nc2ccccc12 [Example 42, dihydrochloride]    pIC50        7.72

Continue with the compound presented below.
Please report the recorded pIC50 for CN(C)c1nc(N[C@H]2CC[C@@H](CNCc3ccc(Br)cc3OC(F)(F)F)CC2)nc2ccccc12 [Example 41, dihydrochloride] .
8.22
